# protocol text: Cytotoxicity against MDCK cells assessed as change in cell morphology measured after 72 hrs by microscopic analysis
# Format: cell-based, Canis lupus familiaris
# condition label: dog
assay metric: MCC at 72 h (µM)
Note: unit µM is implicit; provide only the numeric part.

Ask: Endpoint output: MCC at 72 h of COC(=O)C[C@H](NC(=O)OC(C)(C)C)C(=O)N(Cc1ccc(F)cc1)C1(C(=O)NCc2ccccc2)CCNCC1 . Value?
Reply: 100

Ask: Endpoint output: MCC at 72 h of COC(=O)C[C@H](NC(=O)OC(C)(C)C)C(=O)N(Cc1ccc(Cl)cc1)C1(C(=O)NCc2ccccc2)CCN(Cc2ccccc2)CC1 . Value?
Reply: 100

Ask: Endpoint output: MCC at 72 h of COC(=O)C[C@H](NC(=O)OC(C)(C)C)C(=O)N(Cc1ccc(F)cc1)C1(C(=O)NCS(=O)(=O)c2ccc(C)cc2)CCN(Cc2ccccc2)CC1 . Value?
Reply: 4

Ask: Endpoint output: MCC at 72 h of COC(=O)C[C@H](NC(=O)OC(C)(C)C)C(=O)N(Cc1ccc(F)c(F)c1)C1(C(=O)NCc2ccccc2)CCN(Cc2ccccc2)CC1 . Value?
Reply: 20

Ask: Endpoint output: MCC at 72 h of COC(=O)C[C@H](NC(=O)OC(C)(C)C)C(=O)NC1(C(=O)NCc2ccccc2)CCN(Cc2ccccc2)CC1 . Value?
Reply: 100

Ask: Endpoint output: MCC at 72 h of COC(=O)C[C@H](N)C(=O)N(Cc1ccc(F)cc1)C1(C(=O)NCc2ccccc2)CCN(Cc2ccccc2)CC1 . Value?
Reply: 60

Ask: Endpoint output: MCC at 72 h of COC(=O)C[C@H](NC(=O)OC(C)(C)C)C(=O)N(C1CC1)C1(C(=O)NCc2ccccc2)CCN(Cc2ccccc2)CC1 . Value?
Reply: 84

Ask: Endpoint output: MCC at 72 h of CCC(C)N(C(=O)[C@H](CC(=O)OC)NC(=O)OC(C)(C)C)C1(C(=O)NCc2ccccc2)CCN(Cc2ccccc2)CC1 (stereo partly drawn) . Value?
Reply: 84

Ask: Endpoint output: MCC at 72 h of NC(=O)c1ncn([C@@H]2O[C@H](CO)[C@@H](O)[C@H]2O)n1 . Value?
Reply: 100

Ask: Endpoint output: MCC at 72 h of COC(=O)C[C@H](NC(=O)OC(C)(C)C)C(=O)N(C)C1(C(=O)NCc2ccccc2)CCN(Cc2ccccc2)CC1 . Value?
Reply: 20

###

So I've got a bunch of molecules here, and I need their pEC50 values.
# Test system: Influenza A virus
# protocol text: Antiviral activity against Influenza A virus (A/PR 8/34 (H1N1)) infected in MDCK cells assessed as reduction in virus-induced cytopathic effect measured after 72 hrs by microscopic analysis
# Type: functional, organism-based
# condition label: A/Puerto Rico/8/1934(H1N1)
As a rule, pEC50 stands for the negative log10 of the concentration, concentration in M.

Ask: Endpoint output: pEC50 of CC(C)(C)NC(=O)C1(N(C(=O)[C@H](Cc2ccccc2)NC(=O)OC(C)(C)C)C2CC2)CCN(Cc2ccccc2)CC1 . Value?
Reply: 5.24

Ask: Endpoint output: pEC50 of CC(C)(C)OC(=O)N[C@@H](CC(N)=O)C(=O)N(Cc1ccc(F)cc1)C1(C(=O)NCc2ccccc2)CCN(Cc2ccccc2)CC1 . Value?
Reply: 5.74

Ask: Endpoint output: pEC50 of COC(=O)CCC(=O)N(Cc1ccc(F)cc1)C1(C(=O)NCc2ccccc2)CCN(Cc2ccccc2)CC1 . Value?
Reply: 4.60

Ask: Endpoint output: pEC50 of COC(=O)C[C@H](NC(=O)OC(C)(C)C)C(=O)N(Cc1ccc(C)cc1)C1(C(=O)NCc2ccccc2)CCN(Cc2ccccc2)CC1 . Value?
Reply: 5.16

Ask: Endpoint output: pEC50 of COC(=O)C[C@H](NC(=O)OCc1ccccc1)C(=O)N(C1CC1)C1(C(=O)NCc2ccccc2)CCN(Cc2ccccc2)CC1 . Value?
Reply: 5.70

Ask: Endpoint output: pEC50 of COC(=O)C[C@H](NC(=O)OC(C)(C)C)C(=O)N(Cc1ccccc1F)C1(C(=O)NCc2ccccc2)CCN(Cc2ccccc2)CC1 . Value?
Reply: 5.03

Ask: Endpoint output: pEC50 of COC(=O)C[C@H](NC(=O)OC(C)(C)C)C(=O)N(C)C1(C(=O)NCc2ccccc2)CCN(Cc2ccccc2)CC1 . Value?
Reply: 4.85

Ask: Endpoint output: pEC50 of COC(=O)C[C@H](NC(=O)OC(C)(C)C)C(=O)N(Cc1ccc(Cl)cc1)C1(C(=O)NCc2ccccc2)CCN(Cc2ccccc2)CC1 . Value?
Reply: 5.80

Ask: Endpoint output: pEC50 of COC(=O)CC[C@H](NC(=O)OC(C)(C)C)C(=O)N(Cc1ccc(F)cc1)C1(C(=O)NCc2ccccc2)CCN(Cc2ccccc2)CC1 . Value?
Reply: 5.01

Ask: Endpoint output: pEC50 of COC(=O)C[C@H](NC(=O)OC(C)(C)C)C(=O)N(Cc1ccc(F)cc1)C1(C(=O)NCc2ccccc2)CCN(Cc2cccc(F)c2)CC1 . Value?
Reply: 5.80

Ask: Endpoint output: pEC50 of COC(=O)C[C@H](NC(=O)OCc1ccccc1)C(=O)N(Cc1ccc(F)cc1)C1(C(=O)NCc2ccccc2)CCN(Cc2ccccc2)CC1 . Value?
Reply: 5.57

Ask: Endpoint output: pEC50 of COC(=O)C[C@H](NC(=O)OC(C)(C)C)C(=O)N(Cc1ccc(F)cc1)C1(C(=O)NCc2ccccc2)CCN(Cc2ccccc2)CC1 . Value?
Reply: 5.72

Ask: Endpoint output: pEC50 of COC(=O)C[C@H](NC(=O)OC(C)(C)C)C(=O)N(Cc1cccc(F)c1)C1(C(=O)NCc2ccccc2)CCN(Cc2ccccc2)CC1 . Value?
Reply: 5.39
